The measurements presented in this section are drawn from patent US8110573B2.

Record form. Attribute: IC50. Fill in for each entry.
target: CDK1/CyclinB (Homo sapiens); assay: Activated CDK1/CyclinB kinase inhibitory activity assay
Sequence (P06493 whole entry): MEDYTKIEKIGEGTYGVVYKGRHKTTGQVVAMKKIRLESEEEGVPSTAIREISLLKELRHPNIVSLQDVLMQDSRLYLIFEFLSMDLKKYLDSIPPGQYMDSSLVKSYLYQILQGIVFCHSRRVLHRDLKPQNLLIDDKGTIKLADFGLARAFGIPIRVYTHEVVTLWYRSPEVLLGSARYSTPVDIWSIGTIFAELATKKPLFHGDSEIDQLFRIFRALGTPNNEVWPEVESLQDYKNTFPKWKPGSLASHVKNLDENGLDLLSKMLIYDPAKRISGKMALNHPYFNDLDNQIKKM
Sequence (P14635 whole entry partner): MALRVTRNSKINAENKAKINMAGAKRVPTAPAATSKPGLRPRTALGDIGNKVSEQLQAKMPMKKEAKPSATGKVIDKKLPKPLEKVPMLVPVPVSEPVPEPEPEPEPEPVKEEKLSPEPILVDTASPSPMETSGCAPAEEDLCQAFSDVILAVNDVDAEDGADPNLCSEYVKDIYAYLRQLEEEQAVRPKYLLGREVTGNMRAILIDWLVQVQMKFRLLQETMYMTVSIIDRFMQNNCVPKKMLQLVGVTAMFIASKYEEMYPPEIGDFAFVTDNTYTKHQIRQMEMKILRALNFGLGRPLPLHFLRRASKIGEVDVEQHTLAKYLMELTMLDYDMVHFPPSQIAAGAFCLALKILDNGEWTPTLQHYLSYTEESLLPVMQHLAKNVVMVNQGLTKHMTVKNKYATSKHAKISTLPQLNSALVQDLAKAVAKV

# get_value(readout='IC50', item= `O=C(CC1CC1)Nc1c[nH]nc1-c1nc2cc(CN3CCOCC3)ccc2[nH]1` )
< 1 µM

# get_value(readout='IC50', item= `COc1ccc(C#N)cc1C(=O)Nc1c[nH]nc1-c1nc2cc(CN3CCOCC3)ccc2[nH]1` )
< 1 µM

# get_value(readout='IC50', item= N#CC(C(=O)Nc1c[nH]nc1-c1nc2cc(CN3CCOCC3)ccc2[nH]1)C1CC1 (centres unmarked) )
< 1 µM

# get_value(readout='IC50', item= `O=C(NCC1CCOCC1)Nc1c[nH]nc1-c1nc2cc(CN3CCOCC3)ccc2[nH]1` )
< 50 µM

# get_value(readout='IC50', item= `O=C(Nc1c[nH]nc1-c1nc2cc(CN3CCOCC3)ccc2[nH]1)NN1CCOCC1` )
< 10 µM

# get_value(readout='IC50', item= COc1cc2nc(-c3n[nH]cc3NC(=O)C3CN(C(C)C)CCO3)[nH]c2cc1OC (racemic) )
< 10 µM

# get_value(readout='IC50', item= `O=C(Nc1c[nH]nc1-c1nc2cc(CN3CCOCC3)ccc2[nH]1)NC1CCCCC1` )
< 10 µM

# get_value(readout='IC50', item= `O=C(Nc1c[nH]nc1-c1nc2cc(CN3CCOCC3)ccc2[nH]1)N1CCc2ccccc21` )
< 10 µM

* * *

Target: CDK2/CyclinA (Homo sapiens)
Assay: Activated CDK2/CyclinA kinase inhibitory activity assay
Experimental: The reaction is allowed to proceed for 2 to 4 hours before being stopped with an excess of ortho-phosphoric acid (5 μl at 2%). γ^33P-ATP which remains unincorporated into the histone H1 is separated from phosphorylated histone H1 on a Millipore MAPH filter plate. […] Once the filters have dried, 20 μl of Microscint 20 scintillant is added, and then counted on a Packard Topcount for 30 seconds.
Record form. Attribute: IC50. Fill in for each entry.

# get_value(readout='IC50', item= `O=C(Nc1c[nH]nc1-c1nc2cc(CN3CCOCC3)ccc2[nH]1)NC1CCCCC1` )
< 10 µM

# get_value(readout='IC50', item= `O=C(Nc1ccc(F)cc1)Nc1c[nH]nc1-c1nc2cc(CN3CCOCC3)ccc2[nH]1` )
< 10 µM

# get_value(readout='IC50', item= `O=C(Nc1cc(F)ccc1F)Nc1c[nH]nc1-c1nc2cc(CN3CCOCC3)ccc2[nH]1` )
< 1 µM

# get_value(readout='IC50', item= `CC(C)(C)NC(=O)Nc1c[nH]nc1-c1nc2cc(CN3CCOCC3)ccc2[nH]1` )
< 10 µM

# get_value(readout='IC50', item= `O=C(Nc1ccc(F)cc1F)Nc1c[nH]nc1-c1nc2cc(CN3CCOCC3)ccc2[nH]1` )
< 1 µM

# get_value(readout='IC50', item= `O=C(CC1CC1)Nc1c[nH]nc1-c1nc2cc(CN3CCOCC3)ccc2[nH]1` )
< 1 µM

# get_value(readout='IC50', item= `CN(C)NC(=O)Nc1c[nH]nc1-c1nc2cc(CN3CCOCC3)ccc2[nH]1` )
< 1 µM

# get_value(readout='IC50', item= `O=C(Nc1c[nH]nc1-c1nc2cc(CN3CCOCC3)ccc2[nH]1)NN1CCOCC1` )
< 1 µM

# get_value(readout='IC50', item= `COc1ccc(Cl)cc1C(=O)Nc1c[nH]nc1-c1nc2cc(CN3CCN(C)CC3)ccc2[nH]1` )
< 1 µM

# get_value(readout='IC50', item= `O=C(Nc1c[nH]nc1-c1nc2cc(CN3CCOCC3)ccc2[nH]1)NN1CCCC1` )
< 1 µM
